substrate: O=[N+]([O-])c1ccc2c(c1)OCO2; test: purified protein; assay type: biochemical, Cyclocybe aegerita; details: H2O2 1 mM, potassium phosphate 50 mM pH 7.0, 20% v/v acetonitrile
Result Type: Km
Could you give the number and then its unit, please?

| Protein | Km |
| --- | --- |
| PaDa-I (AaeUPO variant) (Cyclocybe aegerita; F119L/F234A/F354L/I291V/L110F/V100A/V118I) (protein, laboratory-evolved secreted variant; plasmid pJRoC30-PaDa-I in Saccharomyces cerevisiae BJ5465, purified; only F311L given; recalled mature changes V57A/L67F/V75I/I248V/F311L (plus signal peptide F12Y/A14V/R15G/A21D); heme-thiolate, N-glycosylated) EPGLPPGPLENSSAKLVNDEAHPWKPLRPGDIRGPCPGLNTLASHGYLPRNGVATPAQIINAVQEGFNFDNQAAILATYAAHLVDGNLITDLLSIGRKTRLTGPDPPPPASVGGLNEHGTFEGDASMTRGDAFFGNNHDFNETLFEQLVDYSNRFGGGKYNLTVAGELRFKRIQDSIATNPNFSFVDFRFATAYGETTFPANLFVDGRRDDGQLDMDAARSFFQFSRMPDDFFRAPSPRSGTGVEVVVQAHPMQPGRNVGKINSYTVDPTSSDFSTPCLMYEKFVNITVKSLYPNPTVQLRKALNTNLDFLFQGVAAGCTQVFPYGRD | 1552 ± 155 µM |

Let us move to another entry and its Km.
Incoming: For the protein PaDa-I (AaeUPO variant) (Cyclocybe aegerita; F119A/F354L/I291V/L110F/V100A/V118I) (protein, laboratory-evolved secreted variant; plasmid pJRoC30-PaDa-I in Saccharomyces cerevisiae BJ5465, purified; only F311L given; recalled mature changes V57A/L67F/V75I/I248V/F311L (plus signal peptide F12Y/A14V/R15G/A21D); heme-thiolate, N-glycosylated) EPGLPPGPLENSSAKLVNDEAHPWKPLRPGDIRGPCPGLNTLASHGYLPRNGVATPAQIINAVQEGFNFDNQAAIAATYAAHLVDGNLITDLLSIGRKTRLTGPDPPPPASVGGLNEHGTFEGDASMTRGDAFFGNNHDFNETLFEQLVDYSNRFGGGKYNLTVAGELRFKRIQDSIATNPNFSFVDFRFFTAYGETTFPANLFVDGRRDDGQLDMDAARSFFQFSRMPDDFFRAPSPRSGTGVEVVVQAHPMQPGRNVGKINSYTVDPTSSDFSTPCLMYEKFVNITVKSLYPNPTVQLRKALNTNLDFLFQGVAAGCTQVFPYGRD , report Km.
Outgoing: 1386 ± 176 µM
